Data origin, for the record: patent US11149033B2

property_name: melting point (°C)
# unit: °C | format: bare number

Example entries begin here.
compound: Brc1ccc(Nc2nnc(/C=C/c3cccc4ncccc34)o2)cc1 [Compound 121]
reported_result: 246.5
--
compound: Fc1cc(Nc2nnc(/C=C/c3ccccc3Br)o2)ccc1Br [Compound 88]
reported_result: 225.1
--
compound: Cc1cccc(C)c1CSc1nnc(Cn2nc(C)c(Br)c2C)o1 [Compound 40]
reported_result: 106.3
--
compound: Cc1ccccc1CCc1nnc(Nc2ccc(C(F)(F)F)cc2)o1 [Compound 123]
reported_result: 164.5
--
compound: Clc1ncccc1/C=C/c1nnc(Cc2cccc(Br)c2)o1 [Compound 225]
reported_result: 162.5

Requested field: melting point. Item: O=C(O)c1ccccc1/C=C/c1nnc(Cc2cccc(Br)c2)o1 [Compound 243] 167.7

Requested field: melting point. Item: Fc1ccc(/C=C/c2nnc(Cc3ccc(F)c(Br)c3)o2)c(F)c1 [Compound 263] 115

Requested field: melting point. Item: Clc1ccc(/C=C/c2nnc(Cc3ccc(Br)cc3)o2)cc1Cl [Compound 149] 164.5

----------
- run_description: in vitro
- condition: CC50, beside the EC50 of c2
property_name: CC50

Example entries begin here.
molecule: CC(C)c1ccccc1/C=C/c1nnc(Cc2ccccc2)o1
CC50: > 50 µM
//
molecule: Brc1ccc(Cc2nnc(CCc3ccccc3-c3ccccc3)o2)cc1
CC50: > 50 µM
//
molecule: Fc1ccc(/C=C/c2nnc(Nc3ccc(Br)cc3)o2)c(Cl)c1
CC50: > 50 µM
//
molecule: Cc1cc(C(F)(F)F)ccc1/C=C/c1nnc(Cc2cccc(Br)c2)o1
CC50: > 50 µM
//
molecule: Brc1ccc(Nc2nnc(/C=C/c3ccccc3C3CCCCC3)o2)cc1
CC50: > 50 µM
//
molecule: Cc1cccc(/C=C/c2nnc(Cc3ccc(Br)cc3)o2)c1C
CC50: > 50 µM
//
molecule: Cc1cc(F)ccc1/C=C/c1nnc(Cc2cccc(Br)c2)o1
CC50: > 50 µM
//
molecule: CC(C)c1ccc(Cc2nnc(SCc3ccccc3-c3ccccc3)o2)cc1
CC50: > 50 µM

Requested field: CC50. Item: Fc1cc(Nc2nnc(/C=C/c3ccccc3Br)o2)ccc1Br > 50 µM

Requested field: CC50. Item: Clc1ccc(/C=C/c2nnc(Cc3cccc(Br)c3)o2)c(Cl)c1 > 50 µM

----------
- Test system: MDCK cells
- run_description: Cytotoxicity (CC50) in the influenza infection assay
- condition: read-out: CC50 B/Florida/04/2006; cytotoxicity in the B/Florida/04/2006 assay
property_name: CC50 (µM)
# unit: µM | format: bare number

Requested field: CC50. Item: Cc1nn(Cc2nnc(SCc3ccccc3-c3ccncc3)o2)c(C)c1Br [Compound 20] 10.2

----------
- System: A/California/07/2009 (H1N1)
- run_description: Antiviral activity (drug efficacy evaluation by concentration) against A/California/07/2009 (H1N1)
- Assay type: cell-based, A type influenza virus
- condition: Influenza A virus, H1N1; read-out: EC50
Threshold check on EC50: strictly below 40 µM is label 1; on or above 40 µM is label 0.

Worked examples follow.
compound: Brc1cccc(Cc2nnc(SCc3ccccc3-c3ccccc3)o2)c1
classification: label 0

compound: Brc1ccc(Nc2nnc(/C=C/c3ccccc3Br)o2)cc1
classification: label 1

compound: Brc1ccc(Nc2nnc(/C=C/c3ccccc3Oc3ccccc3)o2)cc1
classification: label 1

compound: Fc1ccc(/C=C/c2nnc(Nc3ccc(Br)c(F)c3)o2)c(Cl)c1
classification: label 0

compound: Fc1ccc(/C=C/c2nnc(Cc3ccc(Br)cc3)o2)c(Cl)c1
classification: label 1

compound: CC(C)c1ccc(Cc2nnc(/C=C/c3ccccc3C(C)C)o2)cc1
classification: label 1

Given the entry COc1ccccc1/C=C/c1nnc(Nc2ccc(Br)cc2)o1 , would its reported EC50 be below 40 µM? label 1

Given the entry Fc1ccc(/C=C/c2nnc(Cc3cccc4ccccc34)o2)c(Cl)c1 , would its reported EC50 be below 40 µM? label 0

Given the entry COc1ccccc1/C=C/c1nnc(Cc2cccc(Br)c2)o1 , would its reported EC50 be below 40 µM? label 0
